abundance fitness values for the variants below.
B1: Zinc finger MYM-type protein 3, residues 405 to 444; numbered along this chain, Q14202 (parent)
chain: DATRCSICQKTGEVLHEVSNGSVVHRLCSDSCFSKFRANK

# Variants of: B1
# Experiment description: abundance fitness (aPCA) (normalised: wild type 0, dead -1); higher = more abundant; growth selection in yeast, the domain comes from the species named
# Applied conditions: Homo sapiens

Residue change | abundance fitness
E17S | -0.192
S29K | -0.602
C8R | -0.787
H25E | 0.205
I7Y | 0.079
L27K | -0.317
K35S | 0.02
R4Y | 0.079
Q9S | -0.129
R4N | 0.122
G12E | -0.083
S19L | -0.233
A2P | -0.225
G12F | -0.414
T11W | -0.627
C5G | -0.914
L15R | 0.07
C8N | -0.779
F33G | -0.044
I7R | -0.25
E17N | -0.291
G12I | -0.21

All values here come from the Human Domainome abundance scans (Beltran et al. 2025).
